Measured values drawn from patent US4248884A for this set.

experiment: Acute toxicity by oral administration; conditions: in vivo; male mouse CD1, oral, after three days of observation

compound	LD50 at 72 h
CN1CCC[C@@H]1[C@H](O)c1ccccc1 (relative stereo)	800 mg/kg
O[C@H](c1ccc(C2CCCCC2)cc1)[C@@H]1CCCN1 (relative stereo)	> 900 mg/kg
CC(C)(C)c1ccc([C@@H](O)[C@@H]2CCCN2)cc1 (relative stereo)	600 mg/kg
O[C@H](c1ccc(Cl)cc1)[C@H]1CCCN1 (relative stereo)	400 mg/kg
OCCN1CCC[C@@H]1[C@H](O)c1ccccc1 (relative stereo)	675 mg/kg
O[C@H](c1ccccc1)[C@H]1CCCN1 (relative stereo)	600 mg/kg
O[C@H](c1ccccc1)[C@H]1CCCN1Cc1ccccc1 (relative stereo)	270 mg/kg
O[C@H](c1ccc(Cl)cc1)[C@@H]1CCCN1 (relative stereo)	675 mg/kg
